Hey, just so you know, these numbers are from ChEMBL document CHEMBL1154112.

# Ki listing for each entry below
# target-desc: D(1A) dopamine receptor (Sus scrofa)
# Sequence (P50130 whole entry): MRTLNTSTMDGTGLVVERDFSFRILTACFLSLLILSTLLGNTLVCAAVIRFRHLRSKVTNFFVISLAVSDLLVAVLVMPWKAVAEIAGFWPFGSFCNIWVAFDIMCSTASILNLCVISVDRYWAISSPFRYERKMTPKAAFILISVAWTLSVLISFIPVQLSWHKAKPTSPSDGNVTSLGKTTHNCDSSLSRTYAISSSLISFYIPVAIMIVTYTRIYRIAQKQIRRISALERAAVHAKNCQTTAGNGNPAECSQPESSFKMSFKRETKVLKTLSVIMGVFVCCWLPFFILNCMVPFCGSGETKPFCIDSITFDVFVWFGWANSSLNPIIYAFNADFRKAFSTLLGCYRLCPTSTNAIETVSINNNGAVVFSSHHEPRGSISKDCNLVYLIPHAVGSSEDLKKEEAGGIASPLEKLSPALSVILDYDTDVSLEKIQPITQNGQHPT
# test-details: Binding affinity to pig dopamine D1 receptor
Answer shape: numeric part, then the unit.

Solved cases (2 shown):
COc1ccc(-n2cc(CCCC(=O)NCCCCN3CCN(c4cccc(Cl)c4Cl)CC3)nn2)cc1    1.8 µM
O=C(NCCCCN1CCN(c2cccc(Cl)c2Cl)CC1)c1cn(-c2ccc([N+](=O)[O-])cc2)nn1    0.81 µM

Qu. Which value of Ki has been reported for COc1ccc(-n2cc(C(=O)NCCCCN3CCN(c4cccc(Cl)c4Cl)CC3)nn2)cc1 in the records?
Ans. 1.7 µM

Qu. Now the compound O=C(CCCc1cn(-c2ccc([N+](=O)[O-])cc2)nn1)NCCCCN1CCN(c2cccc(Cl)c2Cl)CC1
Ans. 2.2 µM

Qu. Now the compound COc1ccccc1N1CCN(CCNC(=O)c2cn(-c3ccc([N+](=O)[O-])cc3)nn2)CC1
Ans. 4.1 µM
